- targetEntity: alpha1 adrenoceptors (Rattus norvegicus, UniProt P15823)
- Sequence (P15823 1-515): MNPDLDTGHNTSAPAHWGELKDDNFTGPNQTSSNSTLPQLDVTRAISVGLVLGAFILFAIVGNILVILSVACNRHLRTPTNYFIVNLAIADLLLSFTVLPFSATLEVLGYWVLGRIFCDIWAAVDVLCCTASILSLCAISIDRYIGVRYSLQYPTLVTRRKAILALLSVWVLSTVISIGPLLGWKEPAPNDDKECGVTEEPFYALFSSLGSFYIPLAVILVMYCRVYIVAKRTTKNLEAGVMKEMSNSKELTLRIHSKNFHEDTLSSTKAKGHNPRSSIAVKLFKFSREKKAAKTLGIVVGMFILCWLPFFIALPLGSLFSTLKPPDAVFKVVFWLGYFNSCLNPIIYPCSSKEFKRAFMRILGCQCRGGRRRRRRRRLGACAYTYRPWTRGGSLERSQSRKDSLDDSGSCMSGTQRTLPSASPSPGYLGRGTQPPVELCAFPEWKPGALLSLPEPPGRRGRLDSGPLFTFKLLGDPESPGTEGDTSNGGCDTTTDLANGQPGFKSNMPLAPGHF
measurementLabel: Ki (nM)

Worked cases, Ki given:
Cn1ncc(NCCN2CCN(c3ccccc3)CC2)cc1=O 157
CCOc1ccccc1N1CCN(CCNc2ccnn(C)c2=O)CC1 13.6
COc1ccccc1N1CCN(CCNc2c(OC)cnn(C)c2=O)CC1 7.83
COc1ccccc1N1CCN(CCNc2cnn(CCO)c(=O)c2)CC1 128
COc1ccccc1N1CCN(CCNc2cnn(-c3ccccc3)c(=O)c2Cl)CC1 4.48

a = Cn1ncc(Cl)c(NCCCN2CCN(c3ccccc3F)CC2)c1=O
b = COc1ccccc1N1CCN(CCNc2cnn(C)c(=O)c2Cl)CC1
c = COc1ccccc1N1CCN(CCNc2ccn[nH]c2=O)CC1
IN: Rank entries according to their Ki, from the largest number down. When ranking, write the labels in the order the request describes.
OUT: c, b, a
(c: 42.2 nM, b: 7.57 nM, a: 4.89 nM)

I = CCOc1ccccc1N1CCN(CCCNc2cc(Cl)nn(C)c2=O)CC1
II = Cn1ncc(Cl)c(NCCN2CCN(c3ccccc3F)CC2)c1=O
III = COc1ccccc1N1CCN(CCNc2ccnn(C)c2=O)CC1
IN: Arrange items by their Ki values in increasing order. When ranking, write the labels in the order the request describes.
OUT: II, I, III
(II: 2.51 nM, I: 6.5 nM, III: 15.7 nM)

----------
- measurementNotes: Solubility of the isolated salt in water (remark in the preparation examples)
- Assay type: physicochemical
- runParameters: hydrochloride / dihydrochloride salt
measurementLabel: solubility in water

Worked cases, solubility in water given:
CC(C)(C)n1ncc(NCCN2CCN(c3cccc(C(F)(F)F)c3)CC2)c(Cl)c1=O readily soluble in water
CC(C)(C)n1ncc(Cl)c(NCCN2CCN(c3cccc(C(F)(F)F)c3)CC2)c1=O readily soluble in water
COc1ccccc1N1CCN(CCCCCCNc2c(Cl)cnn(C)c2=O)CC1 soluble in water
Cc1cccc(C)c1N1CCN(CCNc2cnn(C)c(=O)c2Cl)CC1 readily soluble in water
Cc1cccc(C)c1N1CCN(CCNc2c(Cl)cnn(C)c2=O)CC1 readily soluble in water

# context switch: different compound, same solubility in water
IN: Name the reported solubility in water value associated with the compound COc1ccccc1N1CCN(CCCCCCNc2cnn(C)c(=O)c2Cl)CC1
OUT: soluble in water

----------
- targetEntity: 5-HT-1A receptors (Rattus norvegicus)
- Construct: 5-HT-1A receptors in rat brain membranes; from tissue; host or cells: rat brain membranes
- Sequence (P19327 whole entry): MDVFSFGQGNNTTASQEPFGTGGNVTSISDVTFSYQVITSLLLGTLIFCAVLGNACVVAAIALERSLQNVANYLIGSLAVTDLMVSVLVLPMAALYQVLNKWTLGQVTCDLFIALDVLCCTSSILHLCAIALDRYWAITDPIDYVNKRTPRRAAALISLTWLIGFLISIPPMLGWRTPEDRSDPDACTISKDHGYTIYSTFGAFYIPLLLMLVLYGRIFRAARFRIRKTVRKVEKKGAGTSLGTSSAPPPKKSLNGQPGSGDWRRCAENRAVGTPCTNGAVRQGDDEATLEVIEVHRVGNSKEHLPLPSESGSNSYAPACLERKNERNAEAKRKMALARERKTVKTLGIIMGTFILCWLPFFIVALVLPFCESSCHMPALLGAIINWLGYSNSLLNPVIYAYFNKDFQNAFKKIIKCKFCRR
- measurementNotes: Affinity for 5-HT-1A receptors: displacement of tritiated 8-OH-DPAT on rat brain membranes
- Type: binding
- runParameters: Ki from IC50 by Cheng and Prusoff, read-out: Inhibition constants at 5-HT1A-receptor (Ki)
measurementLabel: Ki (nM)

Worked cases, Ki given:
compound	obsValue
COc1cc(C)ccc1N1CCN(CCNc2c(Cl)cnn(C)c2=O)CC1	126
COc1ccccc1N1CCN(CCCNc2cc(=O)n(C)c(=O)n2C)CC1 [URAPIDIL, reference compound]	93.1

A = COc1ccccc1N1CCN(CCNc2cnn(CCN(C)C)c(=O)c2Cl)CC1
B = COc1ccccc1N1CCN(CCNc2cnn(C)c(=O)c2Cl)CC1
IN: Which value of Ki is smaller, the one for A or the one for B ? Please reply using the label of the selected record.
OUT: B
(B: 63.2 nM, A: 118 nM)

The reported numbers originate from patent US5034391A.
